Ref: PubChem BioAssay (NCI)

System: LOX IMVI melanoma
PROTOCOL SUMMARY: NCI-60 one-dose screen, 48 h (100 = growth as untreated, 0 = no growth, -100 = all killed)
CONDITION CONTEXT: 10 µM unless noted
About 83,000 compounds went through this panel and 20% of them were active in at least one assay; those are over-represented in the sample as a whole.
REPORTED METRIC: growth (%)
# unit: % | format: bare number

| COMPOUND | growth, % |
| --- | --- |
| CC1=C([Te]c2ccccc2)C(=O)c2ccccc2C1=O | -41.7 |
| CC[C@H](C)[C@H](NC(=O)[C@H]1CCCCN1C)C(=O)N(C)[C@H](C[C@@H](OC(C)=O)c1nc(C(=O)N[C@@H](Cc2ccccc2)C[C@H](C)C(=O)O)cs1)C(C)C | 9.84 |
| N#CC(C#N)=C(C#N)C#N | 52.3 |
| O=C(Cc1ccccc1)NC(O)C(Cl)(Cl)Cl (centres undefined) | 101 |
| CCOC(=O)c1cncn1C(C)c1ccccc1 (centres undefined) | 101 |
| CCCCS(=O)(=O)Cl | 99.9 |
| Nc1c(Cl)c(Cl)nc(C(=O)O)c1Cl | 90.7 |
| CCC1(CCSC#N)C(=O)NC(=O)NC1=O | 101 |
| O=C=Nc1ccc(Br)cc1 | 106 |
| CCC(=O)C(CC(C)N1CCCCCC1)(c1ccccc1)c1ccccc1 (centres undefined) | 103 |

Query: Fill blank: measured growth of the compound CCCC(C)SP(=S)(SC(C)CCC)SC(C)CCC (centres undefined) is ____.
Result: 93.6

Query: Fill blank: measured growth of the compound "N#CC(NC(=O)CCl)=C(Cl)Cl" is ____.
Result: -56.4

Query: Fill blank: measured growth of the compound "O=C1NC(=O)C(=C/C=C/c2ccccc2)C(=O)N1" is ____.
Result: -64.4

* * *

Test system: SW-620 colon
PROTOCOL SUMMARY: NCI-60 one-dose screen, 48 h
CONDITION CONTEXT: 10 µM unless noted
About 83,000 compounds went through this panel and 20% of them were active in at least one assay; those are over-represented in the sample as a whole. The source made the active and inactive calls. Rule for the calls: active = growth percent below 10; inactive = the rest.
Pick one: true (1) (active), false (0) (inactive)

Study these solved cases before continuing.
| COMPOUND | ASSAYED SYSTEM | ASSIGNED CATEGORY |
| --- | --- | --- |
| CCN1C(=O)NC(=O)C(C)(N2C(=O)c3c(F)c(F)c(F)c(F)c3C2=O)C1=O (stereo not given) | SW-620 colon | true (1) |
| O=[N+]([O-])c1ccc(CI)cc1 | SW-620 colon | false (0) |
| Oc1cc(Cl)ccc1Oc1ccc(Cl)cc1Cl | SW-620 colon | false (0) |
| C[C@]12CC[C@H]3[C@@H](CC=C4c5nc(-c6ccc(Br)cc6)sc5CC[C@@]43C)[C@@H]1CC[C@@H]2O | SW-620 colon | false (0) |
| Nc1cccnc1 | SW-620 colon | false (0) |

Query: # fetch the recorded call for "C[C@]12CCC(=O)C[C@@H]1CC[C@@H]1[C@@H]2CC[C@]2(C)[C@@H](OC(=O)N(CCCl)N=O)CC[C@@H]12" here
Result: false (0)

Query: # fetch the recorded call for CC[C@H](C)[C@H](NC(=O)[C@H]1CCCCN1C)C(=O)N(C)[C@H](C[C@@H](OC(C)=O)c1nc(C(=O)NC23C4C5C2C2C3C4C52C(=O)OC)cs1)C(C)C (stereo not given in full) here
Result: false (0)

Query: # fetch the recorded call for "O=[N+]([O-])c1ccc(P(=O)(O)O)cc1" here
Result: false (0)

* * *

Tested on: HCC-2998 colon
PROTOCOL SUMMARY: NCI-60 one-dose screen, 48 h (100 = growth as untreated, 0 = no growth, -100 = all killed)
CONDITION CONTEXT: 10 µM unless noted
Compounds without any hit were thinned out: in the full panel of roughly 83,000, 20% have a hit.
REPORTED METRIC: growth (%)
# unit: % | format: bare number

Query: Fill blank: measured growth of the molecule "CCOC(=O)P(=O)(OCC)OCC" is ____.
Result: 106

Query: Fill blank: measured growth of the molecule COC12CC3C4=CCOC5CC(=O)N6c7ccccc7C1(CCN2C4)C6C53 (centres undefined) is ____.
Result: 96

* * *

Tested on: A498 renal
PROTOCOL SUMMARY: NCI-60 one-dose screen, 48 h (100 = growth as untreated, 0 = no growth, -100 = all killed)
CONDITION CONTEXT: 10 µM unless noted
About 83,000 compounds went through this panel and 20% of them were active in at least one assay; those are over-represented in the sample as a whole.
REPORTED METRIC: growth (%)
# unit: % | format: bare number

As a guide, the following entries are already answered.
| MOLECULE | growth (%) |
| --- | --- |
| Clc1ccc(COC(Cn2ccnc2)c2ccc(Cl)cc2Cl)c(Cl)c1 (configuration not stated) | 46.1 |
| CNC(=O)O/N=C(\SC)C(=O)N(C)C | 95.8 |
| O=C(O)c1cc([N+](=O)[O-])cc([N+](=O)[O-])c1 | 92.6 |
| CCN1C(=O)NC(=O)C(C)(N2C(=O)c3c(F)c(F)c(F)c(F)c3C2=O)C1=O (configuration not stated) | 99.2 |
| CCC(=O)C(CC(C)[N+](C)(C)C)(c1ccccc1)c1ccccc1 (configuration not stated) | 111 |
| Cc1c2ccncc2c(C)c2c1[nH]c1ccccc12 | -94.8 |
| Cc1cc[c-]cc1.Fc1c[c-]c(-c2ccccn2)c(F)c1.N#CCC[PH+](CCC#N)c1ccccc1.[Pt+2] | 52.3 |
| O=S(=O)(F)c1cccc(Cl)c1C[P+](c1ccccc1)(c1ccccc1)c1ccccc1 | 122 |

Could you now consider this next molecule?
Query: Fill blank: measured growth of the molecule "Cc1cc(C(C)(C)C)ccc1O" is ____.
Result: 96

* * *

Test system: SK-MEL-5 melanoma
PROTOCOL SUMMARY: NCI-60 one-dose screen, 48 h
CONDITION CONTEXT: 10 µM unless noted
Compounds without any hit were thinned out: in the full panel of roughly 83,000, 20% have a hit. Active and inactive are the calls of the source. How the source made its calls: active means growth percent below 10; inactive means the rest.
Pick one: Yes for active, No for inactive

Study these solved cases before continuing.
| COMPOUND | ASSIGNED CATEGORY |
| --- | --- |
| O=[N+]([O-])c1cc(Cl)c(Cl)c([N+](=O)[O-])c1Cl | No |
| COC(=O)C12C3C4C1C1C2C3C41NC(=O)c1csc([C@@H](C[C@H](C(C)C)N(C)C(=O)[C@@H](NC(=O)[C@H]2CCCCN2C)C2CC2)OC(C)=O)n1 (stereo partly specified) | Yes |
| C/C(=C(\c1ccc(OCCN2CCOCC2)cc1)c1ccc(OC(=O)Cc2ccccc2)cc1)c1ccc(Cl)cc1 | No |
| CSc1cc(/C=C(\C)[C@@H]2C[C@@H]3O[C@]3(C)CCC[C@H](C)[C@H](O)[C@@H](C)C(=O)C(C)(C)[C@@H](O)CC(=O)O2)n(CCNC(=O)OC(C)(C)C)n1 | No |

Query: # fetch the recorded call for "CCC1(CCSC#N)C(=O)NC(=O)NC1=O" here
Result: No

Query: # fetch the recorded call for "N#CC(C#N)=C(C#N)C#N" here
Result: No

* * *

Test system: SNB-19 CNS
PROTOCOL SUMMARY: NCI-60 one-dose screen, 48 h (100 = growth as untreated, 0 = no growth, -100 = all killed)
CONDITION CONTEXT: 10 µM unless noted
Description: Growth inhibition of the SNB-19 human tumor cell line is measured as a screen for anti-cancer activity. Cells are grown in 96 well plates and exposed to the test compound for 48 hours. Compounds are tested at a single concentration, which is 10^-5 M for most compounds. The reported endpoint is percent growth (GI% or GIPRCNT), where numbers from 0 - 100% represent growth inhibition, and numbers from -100% - 0 represent cell death. For example, a value of 40 represents 60% growth inhibition. […]
About 83,000 compounds went through this panel and 20% of them were active in at least one assay; those are over-represented in the sample as a whole.
Recorded growth, one value per entry.
# unit: % | format: bare number

As a guide, the following entries are already answered.
| COMPOUND | U | growth |
| --- | --- | --- |
| CC1(C)N(Nc2ccccc2)C(=O)C2CCCN21 (stereo unspecified) | % | 95.4 |
| NC(=O)Oc1cc(OC(N)=O)cc(N(CCCl)CCCl)c1 | % | 74.6 |

Query: Request - read-out growth | tested on SNB-19 CNS | compound "C[C@]12CCc3nc(-c4ccc(O)c(O)c4)sc3C1=CC[C@@H]1[C@@H]2CC[C@]2(C)C(=O)CC[C@@H]12"
Result: 75

Query: Request - read-out growth | tested on SNB-19 CNS | compound "COc1cc(C=C2C(=O)NC(=O)NC2=O)ccc1O"
Result: 96.7

Query: Request - read-out growth | tested on SNB-19 CNS | compound "O=[N+]([O-])c1ccc(CI)cc1"
Result: 106

Query: Request - read-out growth | tested on SNB-19 CNS | compound "CCC1(CCSC#N)C(=O)NC(=O)NC1=O"
Result: 101

Query: Request - read-out growth | tested on SNB-19 CNS | compound "CNC(=O)CCl"
Result: 104

Query: Request - read-out growth | tested on SNB-19 CNS | compound "N#CC(NC(=O)CCl)=C(Cl)Cl"
Result: 60.3

Query: Request - read-out growth | tested on SNB-19 CNS | compound "COc1ccc2c(c1)c(-c1nc(-c3c[nH]c4ncccc34)cs1)cn2CCCCN1CCOCC1"
Result: 52.4

Query: Request - read-out growth | tested on SNB-19 CNS | compound "C[C@@]12CCCc3coc(c31)C(=O)c1cc3c(cc12)C(=O)C1=C(NCCS1(=O)=O)C3=O"
Result: -68.8

Query: Request - read-out growth | tested on SNB-19 CNS | compound "CC[C@H](CC[C@@H](C)[C@H]1CC[C@H]2[C@@H]3CC[C@H]4C[C@]5(CC[C@]4(C)[C@H]3CC[C@]12C)OO[C@](C)(C(F)(F)F)O5)C(C)C"
Result: 90.4

Query: Request - read-out growth | tested on SNB-19 CNS | compound "COC[C@H]1OC(=O)c2coc3c2[C@@]1(C)C1=C(C3=O)[C@@H]2CCC(=O)[C@@]2(C)C[C@H]1OC(C)=O"
Result: 66.2

Query: Request - read-out growth | tested on SNB-19 CNS | compound C[C@]12CCC3[C@@H](C[C@@H]4SC(Nc5ccccc5)=N[C@@]45CC(=O)CC[C@]35C)[C@@H]1CCC2=O (stereo partly specified)
Result: 21.9

Query: Request - read-out growth | tested on SNB-19 CNS | compound CCOC(=O)C1C(C=C(C)C)C1(C)C (stereo unspecified)
Result: 103
